experimentalSystem: Human immunodeficiency virus type 1 reverse transcriptase (Human immunodeficiency virus 1, UniProt Q72547, Y188L)
assayExplanation: Inhibition of HIV1 reverse transcriptase Y188L mutant using oligo(dT)16 as primer measured after 40 mins by picogreen-dye based spectrofluorimetric analysis
propertyMeasured: IC50 (nM)
One number for each entry, in nM.

COc1cc2cc(C#N)ccc2c(OC)c1Oc1cc(N2CCC(O)C2)nc(Nc2ccc(C#N)cc2)n1 (stereo not drawn); 1060

Please supply IC50 for each of the following items, keeping them in order.
1. CCNc1cc(Oc2c(OC)cc3cc(C#N)ccc3c2OC)nc(Nc2ccc(C#N)cc2)n1
2. COc1cc2cc(C#N)ccc2c(OC)c1Oc1cc(N)nc(Nc2ccc(C#N)cc2)n1

2320
150

* * *

experimentalSystem: Human immunodeficiency virus type 1 reverse transcriptase (Human immunodeficiency virus 1, UniProt Q72547)
pIC50: −log10 of the molar value.
// Not satisfied strictly below 7 in pIC50; Satisfied otherwise

COc1cc2cc(C#N)ccc2c(OC)c1Oc1cc(NCCCO)nc(Nc2ccc(C#N)cc2)n1; Not satisfied
COc1cc2cc(C#N)ccc2c(OC)c1Oc1cc(NCC2CCOC2)nc(Nc2ccc(C#N)cc2)n1 (centres undefined); Satisfied
CCCCCNc1cc(Oc2c(OC)cc3cc(C#N)ccc3c2OC)nc(Nc2ccc(C#N)cc2)n1; Satisfied
COc1cc2cc(C#N)ccc2c(OC)c1Oc1cc(NC2CCOCC2)nc(Nc2ccc(C#N)cc2)n1; Not satisfied
COc1cc2cc(C#N)ccc2c(OC)c1Oc1cc(NCC2CCOCC2)nc(Nc2ccc(C#N)cc2)n1; Not satisfied
CCCC(CCC)Nc1cc(Oc2c(OC)cc3cc(C#N)ccc3c2OC)nc(Nc2ccc(C#N)cc2)n1; Not satisfied

// next entry
Tell me whether pIC50 is at least 7 here: CNc1cc(Oc2c(OC)cc3cc(C#N)ccc3c2OC)nc(Nc2ccc(C#N)cc2)n1
Not satisfied

* * *

assayExplanation: Selectivity index, ratio of CC50 for cytotoxicity against human MT4 cells to EC50 of Anti-HIV activity against HIV-1 IIIB infected in human MT4
Format: toxicity, cell-based
measurementContext: read-out: Selectivity Index
propertyMeasured: selectivity ratio

# example entries with known answers
COc1cc2cc(C#N)ccc2c(OC)c1Oc1cc(NCC(C)C)nc(Nc2ccc(C#N)cc2)n1; > 7250
COc1cc2cc(C#N)ccc2c(OC)c1Oc1cc(NC2CCCCC2)nc(Nc2ccc(C#N)cc2)n1; > 2290
COc1cc2cc(C#N)ccc2c(OC)c1Oc1cc(NC2CC2)nc(Nc2ccc(C#N)cc2)n1; > 12700

Fill in selectivity ratio for each of the 2 molecules listed.
1. COc1cc2cc(C#N)ccc2c(OC)c1Oc1cc(NCC2CCOCC2)nc(Nc2ccc(C#N)cc2)n1
2. CCCC(C)Nc1cc(Oc2c(OC)cc3cc(C#N)ccc3c2OC)nc(Nc2ccc(C#N)cc2)n1 (stereo not given)

1. > 10700
2. > 3140

* * *

Hi there, I'd appreciate the recorded selectivity ratio for every entry that follows.
assayExplanation: Selectivity index, ratio of CC50 for cytotoxicity against human MT4 cells to EC50 of Anti-HIV activity against HIV-1 IIIB infected in human MT4
Type: toxicity, cell-based
measurementContext: read-out: Selectivity Index

Give one value of selectivity ratio per listed molecule.
1. CCC(CC)Nc1cc(Oc2c(OC)cc3cc(C#N)ccc3c2OC)nc(Nc2ccc(C#N)cc2)n1
2. Cc1cn([C@H]2C[C@H](N=[N+]=[N-])[C@@H](CO)O2)c(=O)[nH]c1=O
3. COc1cc2cc(C#N)ccc2c(OC)c1Oc1cc(NC2CCC2)nc(Nc2ccc(C#N)cc2)n1
4. CCCC(CCC)Nc1cc(Oc2c(OC)cc3cc(C#N)ccc3c2OC)nc(Nc2ccc(C#N)cc2)n1

1. > 1930
2. > 240
3. > 7040
4. > 330

* * *

Test system: Human immunodeficiency virus 1
assayExplanation: Anti-HIV activity against HIV-1 IIIB infected in human MT4 cells assessed as reduction in virus-induced cytopathic effect incubated for 5 days by MTT assay
Format: functional, organism-based
measurementContext: Human immunodeficiency virus 1, IIIB, MT4, 120 h
propertyMeasured: IC50 (nM)
One number for each entry, in nM.

IC50 in this record for COc1cc2cc(C#N)ccc2c(OC)c1Oc1cc(NC2CCCC2)nc(Nc2ccc(C#N)cc2)n1 : 48

* * *

experimentalSystem: Human immunodeficiency virus type 1 reverse transcriptase (Human immunodeficiency virus 1, UniProt Q72547)
Kindly state IC50 for each of the entries shown.

Recorded results for 10 compounds are shown here.
COc1cc2cc(C#N)ccc2c(OC)c1Oc1cc(NC(C)(C)C)nc(Nc2ccc(C#N)cc2)n1; 310 nM
COc1cc2cc(C#N)ccc2c(OC)c1Oc1cc(NC2CCOC2)nc(Nc2ccc(C#N)cc2)n1 (stereo not drawn); 180 nM
COc1cc2cc(C#N)ccc2c(OC)c1Oc1cc(NCC(C)C)nc(Nc2ccc(C#N)cc2)n1; 250 nM
CCCNc1cc(Oc2c(OC)cc3cc(C#N)ccc3c2OC)nc(Nc2ccc(C#N)cc2)n1; 110 nM
COc1cc2cc(C#N)ccc2c(OC)c1Oc1cc(NCC(C)(C)C)nc(Nc2ccc(C#N)cc2)n1; 510 nM
COc1cc2cc(C#N)ccc2c(OC)c1Oc1cc(NC2CC2)nc(Nc2ccc(C#N)cc2)n1; 80 nM
COc1cc2cc(C#N)ccc2c(OC)c1Oc1cc(N)nc(Nc2ccc(C#N)cc2)n1; 20 nM
CCC(CC)Nc1cc(Oc2c(OC)cc3cc(C#N)ccc3c2OC)nc(Nc2ccc(C#N)cc2)n1; 600 nM
COc1cc2cc(C#N)ccc2c(OC)c1Oc1cc(NCCC2=CCCCC2)nc(Nc2ccc(C#N)cc2)n1; 280 nM
COc1cc2cc(C#N)ccc2c(OC)c1Oc1cc(NCC2CC2)nc(Nc2ccc(C#N)cc2)n1; 90 nM

Give me IC50 for each of these compounds, listed below.
1. COc1cc2cc(C#N)ccc2c(OC)c1Oc1cc(NCCCCO)nc(Nc2ccc(C#N)cc2)n1
2. COc1cc2cc(C#N)ccc2c(OC)c1Oc1cc(N2CCOCC2)nc(Nc2ccc(C#N)cc2)n1
3. CCC(C)CNc1cc(Oc2c(OC)cc3cc(C#N)ccc3c2OC)nc(Nc2ccc(C#N)cc2)n1 (stereo not drawn)
4. COc1cc2cc(C#N)ccc2c(OC)c1Oc1cc(NCC(O)CO)nc(Nc2ccc(C#N)cc2)n1 (stereo not drawn)
5. CCCC(C)Nc1cc(Oc2c(OC)cc3cc(C#N)ccc3c2OC)nc(Nc2ccc(C#N)cc2)n1 (stereo not drawn)
6. CCNc1cc(Oc2c(OC)cc3cc(C#N)ccc3c2OC)nc(Nc2ccc(C#N)cc2)n1
7. COc1cc2cc(C#N)ccc2c(OC)c1Oc1cc(NCCCOC(C)C)nc(Nc2ccc(C#N)cc2)n1
8. CCCCCC(C)Nc1cc(Oc2c(OC)cc3cc(C#N)ccc3c2OC)nc(Nc2ccc(C#N)cc2)n1 (stereo not drawn)

80 nM
250 nM
270 nM
80 nM
400 nM
60 nM
320 nM
1200 nM

* * *

Tested on: Human immunodeficiency virus 2
assayExplanation: Anti-HIV activity against HIV2 ROD infected in human MT4 cells assessed as reduction in virus-induced cytopathic effect incubated for 5 days by MTT assay
Assay type: functional, organism-based
measurementContext: Human immunodeficiency virus 2, ROD, MT4, 120 h
pIC50: −log10 of the molar value.
propertyMeasured: pIC50

Item COc1cc2cc(C#N)ccc2c(OC)c1Oc1cc(NC2CCCCC2)nc(Nc2ccc(C#N)cc2)n1 was tested on Human immunodeficiency virus 2; the reported pIC50 is < 3.00

* * *

System: Human immunodeficiency virus 1
assayExplanation: Antiviral activity against HIV1 harboring reverse transcriptase L100I mutant infected in human MT4 cells assessed as protection against virus-induced cytopathic effect incubated for 5 days by MTT assay
Type: functional, organism-based
measurementContext: Human immunodeficiency virus 1, MT4, 120 h
propertyMeasured: EC50 (nM)
Give bare numbers, in nM.

Observe how each entry below is paired with its result.
COc1cc2cc(C#N)ccc2c(OC)c1Oc1cc(NCCCO)nc(Nc2ccc(C#N)cc2)n1; 310
COc1cc2cc(C#N)ccc2c(OC)c1Oc1cc(NC2CCOC2)nc(Nc2ccc(C#N)cc2)n1 (stereo not drawn); 230
COc1cc2cc(C#N)ccc2c(OC)c1Oc1cc(NCC(F)(F)F)nc(Nc2ccc(C#N)cc2)n1; 490
Nc1ccn([C@@H]2CS[C@H](CO)O2)c(=O)n1 [LAMIVUDINE]; 2130
COc1cc2cc(C#N)ccc2c(OC)c1Oc1cc(NCC2CC2)nc(Nc2ccc(C#N)cc2)n1; 960
CCCCCNc1cc(Oc2c(OC)cc3cc(C#N)ccc3c2OC)nc(Nc2ccc(C#N)cc2)n1; 1430

Please look at the items below and tell me EC50 for each one, in order.
1. CNc1cc(Oc2c(OC)cc3cc(C#N)ccc3c2OC)nc(Nc2ccc(C#N)cc2)n1
2. COc1cc2cc(C#N)ccc2c(OC)c1Oc1cc(NCC2CCOC2)nc(Nc2ccc(C#N)cc2)n1 (stereo not drawn)
3. COc1cc2cc(C#N)ccc2c(OC)c1Oc1cc(NC2CCC2)nc(Nc2ccc(C#N)cc2)n1
4. COc1cc2cc(C#N)ccc2c(OC)c1Oc1cc(N)nc(Nc2ccc(C#N)cc2)n1
5. COc1cc2cc(C#N)ccc2c(OC)c1Oc1cc(N2CCOCC2)nc(Nc2ccc(C#N)cc2)n1
6. COc1cc2cc(C#N)ccc2c(OC)c1Oc1cc(NC2CC2)nc(Nc2ccc(C#N)cc2)n1
7. COc1cc2cc(C#N)ccc2c(OC)c1Oc1cc(NC2CCCCC2)nc(Nc2ccc(C#N)cc2)n1
8. COc1cc2cc(C#N)ccc2c(OC)c1Oc1cc(NCCCCO)nc(Nc2ccc(C#N)cc2)n1

1: 510; 2: 370; 3: 1020; 4: 38; 5: 520; 6: 590; 7: 39800; 8: 300

Hi, could you look up EC50 for each item in my list?
1. COc1cc2cc(C#N)ccc2c(OC)c1Oc1cc(NCC(C)(C)C)nc(Nc2ccc(C#N)cc2)n1
2. COc1cc2cc(C#N)ccc2c(OC)c1Oc1cc(NCC2CCOCC2)nc(Nc2ccc(C#N)cc2)n1
3. CCCNc1cc(Oc2c(OC)cc3cc(C#N)ccc3c2OC)nc(Nc2ccc(C#N)cc2)n1

1: 8790; 2: 150; 3: 470

Value of EC50 reported for the molecule Cc1cn([C@H]2C[C@H](N=[N+]=[N-])[C@@H](CO)O2)c(=O)[nH]c1=O [ZIDOVUDINE] is 10
